switch fluorescence ratio values, listed per item
Test system: ATP;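 also: ATP exposure 15 min at 22 °C before imaging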
assay_name: switch fluorescence ratio, 500 uM ATP over buffer (Cy3 cluster intensity, sum of 5 cycles each) (fold (ratio)); higher = stronger signal-on switching upon ATP binding; sequences stand for … in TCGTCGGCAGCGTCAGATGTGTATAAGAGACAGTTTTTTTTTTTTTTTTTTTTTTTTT…TC
conditions_used: aptamer strand: ATP DNA aptamer (quencher-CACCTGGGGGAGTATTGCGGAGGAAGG + anchor), 100 nM annealed; ATP concentration: 500 uM
Just the number.

{"sequence_data": "GAAATGCGGC", "switch fluorescence ratio": 0.979}
{"sequence_data": "TTGGGGCCCT", "switch fluorescence ratio": 1.01}

## Task # switch fluorescence ratio lookup, item ATTGTTAGGG
## Result 0.985

## Task Using the record for ATTGTTACTT , report its switch fluorescence ratio.
## Result 1.02

## Task Quick one: switch fluorescence ratio for GAGGTGAGTG ?
## Result 0.992

## Task I'd like to know its switch fluorescence ratio. The sequence in question is GGGGAAAAGT
## Result 1.01

## Task Given the entry TGGTTTACTA , report its measured switch fluorescence ratio.
## Result 1.01

## Task Recorded switch fluorescence ratio of TGCAGAAAAT , please.
## Result 1.01

## Task What measured switch fluorescence ratio goes with TAAGGATGTT ?
## Result 0.974

## Task I would be grateful if you could share the reported switch fluorescence ratio for GTCATCGGCC .
## Result 0.996
